The measurements presented in this section are drawn from paper PMC10527387.

Target Entity: Nav1.5 (INa) (Homo sapiens)
Sequence (Q14524 whole entry): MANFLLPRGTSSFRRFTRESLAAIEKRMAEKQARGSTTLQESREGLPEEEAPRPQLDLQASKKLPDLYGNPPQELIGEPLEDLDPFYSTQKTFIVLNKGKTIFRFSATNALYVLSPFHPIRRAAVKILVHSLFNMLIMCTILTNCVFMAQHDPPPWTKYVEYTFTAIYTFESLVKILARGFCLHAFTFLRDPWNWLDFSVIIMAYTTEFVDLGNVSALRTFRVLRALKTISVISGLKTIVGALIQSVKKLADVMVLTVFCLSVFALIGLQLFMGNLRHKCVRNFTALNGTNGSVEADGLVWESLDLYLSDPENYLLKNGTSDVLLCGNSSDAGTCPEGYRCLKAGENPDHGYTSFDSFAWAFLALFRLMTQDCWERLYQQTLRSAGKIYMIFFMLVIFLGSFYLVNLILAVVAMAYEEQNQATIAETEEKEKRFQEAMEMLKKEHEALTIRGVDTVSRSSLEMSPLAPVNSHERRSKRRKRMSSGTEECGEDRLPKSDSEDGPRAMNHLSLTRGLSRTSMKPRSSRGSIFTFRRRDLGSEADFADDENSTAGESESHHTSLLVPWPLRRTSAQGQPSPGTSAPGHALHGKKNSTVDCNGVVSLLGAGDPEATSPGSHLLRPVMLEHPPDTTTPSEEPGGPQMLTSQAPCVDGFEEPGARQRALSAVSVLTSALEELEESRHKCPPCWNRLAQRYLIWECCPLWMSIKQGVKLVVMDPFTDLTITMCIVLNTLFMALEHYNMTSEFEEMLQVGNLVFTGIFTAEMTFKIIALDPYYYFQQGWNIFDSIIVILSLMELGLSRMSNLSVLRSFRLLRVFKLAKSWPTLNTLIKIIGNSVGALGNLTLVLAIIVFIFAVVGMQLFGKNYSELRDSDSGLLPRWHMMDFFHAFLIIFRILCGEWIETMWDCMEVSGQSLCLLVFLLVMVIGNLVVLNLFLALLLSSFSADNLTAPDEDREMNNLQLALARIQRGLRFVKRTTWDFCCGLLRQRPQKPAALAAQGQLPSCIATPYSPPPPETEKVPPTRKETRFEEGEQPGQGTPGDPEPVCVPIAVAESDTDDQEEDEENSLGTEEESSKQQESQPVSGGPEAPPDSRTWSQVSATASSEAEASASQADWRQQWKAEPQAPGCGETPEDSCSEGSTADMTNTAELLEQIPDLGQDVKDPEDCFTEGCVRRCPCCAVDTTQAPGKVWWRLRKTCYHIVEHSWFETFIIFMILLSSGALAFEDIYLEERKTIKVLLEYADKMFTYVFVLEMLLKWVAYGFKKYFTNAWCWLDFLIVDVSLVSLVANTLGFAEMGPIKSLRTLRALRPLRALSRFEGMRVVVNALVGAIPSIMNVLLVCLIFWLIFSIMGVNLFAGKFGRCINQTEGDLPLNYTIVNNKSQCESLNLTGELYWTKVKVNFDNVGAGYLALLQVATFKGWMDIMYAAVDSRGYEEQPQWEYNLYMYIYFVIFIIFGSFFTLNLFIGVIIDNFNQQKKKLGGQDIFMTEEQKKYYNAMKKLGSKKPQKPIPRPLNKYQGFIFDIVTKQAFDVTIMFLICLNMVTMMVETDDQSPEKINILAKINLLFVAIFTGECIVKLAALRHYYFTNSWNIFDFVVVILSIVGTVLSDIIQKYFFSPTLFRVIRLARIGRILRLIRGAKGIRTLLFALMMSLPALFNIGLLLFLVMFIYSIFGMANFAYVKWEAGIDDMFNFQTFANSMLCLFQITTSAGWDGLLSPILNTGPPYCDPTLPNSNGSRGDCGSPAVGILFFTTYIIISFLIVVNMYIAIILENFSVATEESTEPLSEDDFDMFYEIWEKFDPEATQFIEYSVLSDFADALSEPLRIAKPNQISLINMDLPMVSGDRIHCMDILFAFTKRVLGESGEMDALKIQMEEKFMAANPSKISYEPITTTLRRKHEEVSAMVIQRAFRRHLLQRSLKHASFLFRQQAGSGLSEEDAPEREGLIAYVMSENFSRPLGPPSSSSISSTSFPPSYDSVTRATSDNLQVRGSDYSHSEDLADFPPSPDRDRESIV
Experimental Readout: IC50 (nM)
One number for each entry, in nM.

Per the records, this compound ( CN(C)C(=O)C(CCN1CCC(O)(c2ccc(Cl)cc2)CC1)(c1ccccc1)c1ccccc1 [Loperamide] ) has IC50 equal to 526
